List of IC50 values.
- target.of.assay: UniProt:P68699
- experiment: ATP production by membrane vesicles, luciferase luminescence
- assay.conditions: […] NADH, 1 mM ADP, 10 mM potassium phosphate; 30 min preincubation, 60 min reaction
Quick reminder: number only, in nM, skip the unit.

Recorded IC50, per entry:
| compound | unit.abbreviation | measurement |
| --- | --- | --- |
| C[C@H]1CC[C@]2(NC1)O[C@H]1C[C@H]3[C@@H]4CC[C@H]5CC(NC[C@H](N)Cc6ccc(I)cc6)CC[C@]5(C)[C@H]4CC[C@]3(C)[C@H]1[C@@H]2C (mixture of isomers) [TM-184] | nM | 1570 |
| C[C@H]1CC[C@]2(NC1)O[C@H]1C[C@H]3[C@@H]4CC[C@H]5CC(NC[C@H](N)Cc6ccc(C(F)(F)F)cc6)CC[C@]5(C)[C@H]4CC[C@]3(C)[C@H]1[C@@H]2C (stereo partly shown) [TM-303] | nM | 3150 |
| C[C@H]1CC[C@]2(NC1)O[C@H]1C[C@H]3[C@@H]4CC[C@H]5CC(NCCN)CC[C@]5(C)[C@H]4CC[C@]3(C)[C@H]1[C@@H]2C (mixture of isomers) [TM-02] | nM | 1490 |

**Query** Given the compound C[C@H]1CC[C@]2(NC1)O[C@H]1C[C@H]3[C@@H]4CC[C@H]5CC(NC[C@H](N)Cc6c[nH]c7ccccc67)CC[C@]5(C)[C@H]4CC[C@]3(C)[C@H]1[C@@H]2C (stereo partly shown) [TM-247] , what is its reported IC50?
**Result** 2120
